Test: Shake-flask drug solubility in absence of excipient (reference solubility)
Type: physicochemical
Settings: 37 °C, pH 6.5, thermodynamic from solid, FaSSIF-V2, 0.5 h, read-out: Solubility of pure drug
Experimental: Compendial media (0.1 N HCl pH 1, phosphate buffer pH 6.8) were prepared according to the method described in the European Pharmacopoeia ([43]). […] Drug solubility studies in the absence and presence of excipient were performed in triplicate using the shake-flask method ([45]). […] Filtered samples were further diluted (if needed) with the corresponding medium and analysed by HPLC (Supplementary Table I). […] Drug quantification was made based on calibration curves. […]
measured quantity: solubility at 0.5 h (µg/mL)
I only need the number, in µg/mL, no unit after it.

Ask: Fill in: solubility at 0.5 h of NC(=O)N1c2ccccc2C=Cc2ccccc21 [CBZ, carbamazepine] is ___
Reply: 307

====

Test: Shake-flask drug solubility in absence of excipient (reference solubility)
Type: physicochemical
Conditions: aqueous buffer, thermodynamic from solid, Phosphate buffer pH 6.8, 37 °C, mean ± SD, n = 3
measured quantity: solubility at 24 h

Ask: Query: solubility at 24 h; subject: CCC(C)n1ncn(-c2ccc(N3CCN(c4ccc(OCC5COC(Cn6cncn6)(c6ccc(Cl)cc6Cl)O5)cc4)CC3)cc2)c1=O (stereo not shown)
Reply: < 0.015 µg/mL

====

Assay: Shake-flask drug solubility in absence of excipient (reference solubility)
Assay type: physicochemical
Conditions: 37 °C, pH 1.6, fassgf or other biorelevant, thermodynamic from solid, FaSSGF, 0.5 h, read-out: Solubility of pure drug
measured quantity: solubility at 0.5 h

Ask: Please report the recorded solubility at 0.5 h for NC(=O)N1c2ccccc2C=Cc2ccccc21 [CBZ, carbamazepine] .
Reply: 387 µg/mL
